Listed here: molecules with reported AC50 for UniProtKB Q01959.
Sequence (Q01959 whole entry): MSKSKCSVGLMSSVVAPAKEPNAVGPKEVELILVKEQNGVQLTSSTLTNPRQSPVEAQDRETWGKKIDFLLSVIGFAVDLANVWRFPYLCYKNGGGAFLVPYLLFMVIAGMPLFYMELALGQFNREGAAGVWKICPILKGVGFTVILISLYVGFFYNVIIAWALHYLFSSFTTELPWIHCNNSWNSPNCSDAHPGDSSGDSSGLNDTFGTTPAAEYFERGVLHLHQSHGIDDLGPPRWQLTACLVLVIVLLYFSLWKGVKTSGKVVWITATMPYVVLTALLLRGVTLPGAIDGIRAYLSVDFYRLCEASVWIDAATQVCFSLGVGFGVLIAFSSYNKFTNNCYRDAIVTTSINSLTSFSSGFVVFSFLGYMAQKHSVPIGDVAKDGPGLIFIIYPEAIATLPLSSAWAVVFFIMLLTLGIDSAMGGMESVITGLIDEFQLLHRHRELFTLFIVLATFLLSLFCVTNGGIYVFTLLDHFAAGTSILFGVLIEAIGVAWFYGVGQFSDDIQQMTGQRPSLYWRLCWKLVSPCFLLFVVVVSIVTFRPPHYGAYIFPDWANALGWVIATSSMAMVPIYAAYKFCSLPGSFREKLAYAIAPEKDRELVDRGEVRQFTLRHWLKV

Recorded AC50, per entry:
• O=C(O)c1ccccc1Nc1cccc(C(F)(F)F)c1 = > 30 µM
• O=C(O)CSCC(=O)NC1CCSC1=O (stereo unspecified) = > 30 µM
• C=C[C@@]1(C)CC(=O)[C@]2(O)[C@@]3(C)[C@@H](O)CCC(C)(C)[C@@H]3[C@H](OC(=O)CCN(C)C)[C@H](OC(C)=O)[C@@]2(C)O1 = > 30 µM
• CC(C)N(CCCCOCC(=O)NS(C)(=O)=O)c1cnc(-c2ccccc2)c(-c2ccccc2)n1 = > 30 µM
• CCOc1cc(CC(=O)N[C@@H](CC(C)C)c2ccccc2N2CCCCC2)ccc1C(=O)O [REPAGLINIDE] = > 30 µM
• O=C(CCCN1CCC2(CC1)C(=O)NCN2c1ccccc1)c1ccc(F)cc1 = 7.2 µM

Which AC50 is listed for CC[C@H]1OC(=O)[C@H](C)[C@@H](O[C@H]2C[C@@](C)(OC)[C@@H](O)[C@H](C)O2)[C@H](C)[C@@H](O[C@@H]2O[C@H](C)C[C@H](N(C)C)[C@H]2O)[C@](C)(OC)C[C@@H](C)C(=O)[C@H](C)[C@@H](O)[C@]1(C)O ? > 30 µM

Same thing, different molecule: CC(=O)/N=c1/sc(S(N)(=O)=O)nn1C [METHAZOLAMIDE] > 10 µM

Next: CCN(CC)CC(=O)Oc1ccc(NC(C)=O)cc1 > 30 µM

And for CCn1cc(C(=O)O)c(=O)c2cc(F)c(N3CCN(C)CC3)cc21 ? > 30 µM

Same question for COC(=O)[C@H](c1ccccc1Cl)N1CCc2sccc2C1 please. > 30 µM

What do we get for [H]/N=C(\N/C(=N/[H])NCCCCCCNC(=N)NC(=N)Nc1ccc(Cl)cc1)Nc1ccc(Cl)cc1 ? 3 µM

Now the same for Cc1ccc(=O)n(-c2ccccc2)c1 > 30 µM

###

Target: Alpha-1A adrenergic receptor (Homo sapiens, UniProt P35348)
Sequence (P35348 whole entry): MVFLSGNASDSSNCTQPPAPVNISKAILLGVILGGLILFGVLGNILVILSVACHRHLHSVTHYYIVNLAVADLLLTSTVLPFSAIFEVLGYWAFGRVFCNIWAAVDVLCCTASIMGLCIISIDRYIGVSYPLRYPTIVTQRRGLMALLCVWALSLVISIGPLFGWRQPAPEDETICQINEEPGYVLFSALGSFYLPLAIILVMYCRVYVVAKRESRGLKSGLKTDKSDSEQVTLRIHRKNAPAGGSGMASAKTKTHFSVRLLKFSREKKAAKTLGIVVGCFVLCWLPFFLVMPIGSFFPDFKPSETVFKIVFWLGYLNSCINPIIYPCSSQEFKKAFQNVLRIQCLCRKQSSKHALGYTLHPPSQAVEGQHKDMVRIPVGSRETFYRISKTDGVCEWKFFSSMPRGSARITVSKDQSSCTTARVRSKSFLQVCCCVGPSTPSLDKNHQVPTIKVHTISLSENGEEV
Format: functional, cell-based
VALUE_TYPE: AC50

* CC(C1=C(CCN(C)C)Cc2ccccc21)c1ccccn1 (stereo not drawn) | 8.8 µM

For the molecule shown here, COCCCOc1ccnc(C[S+]([O-])c2nc3ccccc3[nH]2)c1C (stereo not drawn) , give the reported AC50. > 30 µM

###

Observed AC50, system UniProtKB Q01959.

Observe how each entry below is paired with its result.
* O=C(O)c1cc(=O)c2ccccc2o1 | > 30 µM
* NC(=O)NCCC[C@H](N)C(=O)O | > 30 µM
* COc1cc([C@@H]2c3cc4c(cc3[C@@H](O[C@@H]3O[C@@H]5CO[C@@H](c6cccs6)O[C@H]5[C@H](O)[C@H]3O)[C@H]3COC(=O)[C@H]23)OCO4)cc(OC)c1O [TENIPOSIDE] | > 30 µM
* CN(C)CCN(Cc1ccc(Cl)cc1)c1ccccn1 | 0.21 µM
* CCCCCCCCCCCCCCCCCC(=O)NCCCC[C@H](NC(=O)CC[C@@H](NC(=O)[C@H](C)NC(=O)[C@@H](C)O[C@H]1[C@H](O)[C@@H](CO)OC(O)[C@@H]1NC(C)=O)C(N)=O)C(=O)O (some centres not stated) [ROMURTIDE] | > 30 µM
* CC(=O)OC(C)OC(=O)C(C)c1ccc(-c2ccccc2)c(F)c1 (configuration not stated) | > 30 µM
* CNC[C@H](O)c1cccc(O)c1 | 29.4 µM
* O=C(O)CCCc1ccc(N(CCCl)CCCl)cc1 | > 30 µM

Missing value: AC50, UniProtKB Q01959, entry NCCc1ccc(O)cc1 . Fill in? > 30 µM

Quick one: c1cc(CN2CCCNCCNCCCNCC2)ccc1CN1CCCNCCNCCCNCC1 > 30 µM

And the next one, CC(=O)OCC[N+](C)(C)C ? > 30 µM

Input Nc1nc(N)nc(Nc2ccc([As]3SCC(CO)S3)cc2)n1 (configuration not stated) 29.2 µM

Cool, now CCCCCCCC(=O)N[C@H](CN1CCCC1)[C@H](O)c1ccc2c(c1)OCCO2 > 30 µM

Now consider CC[N+](C)(CC)CCOC(=O)C1c2ccccc2Oc2ccccc21 and answer again. > 30 µM

Another molecule to check: CC(c1ccc(Cl)c(Cl)c1)N1N=C(N)CC1=O (configuration not stated) > 30 µM

Record: CC(=O)/N=c1/sc(S(N)(=O)=O)nn1C [METHAZOLAMIDE] > 30 µM

Now give it for CCCCCCCCCCC[C@@H](C[C@@H]1OC(=O)[C@H]1CCCCCC)OC(=O)[C@H](CC(C)C)NC=O too. > 30 µM

Param item: N[C@@H](CC(=O)O)C(=O)O > 30 µM

COCCCOc1ccnc(C[S+]([O-])c2nc3ccccc3[nH]2)c1C (configuration not stated) ? > 30 µM

Now this one: CCOC(=O)c1ccc(OC(=O)CCCCCNC(=N)N)cc1 [GABEXATE] 14.8 µM

Would you mind doing CC(=O)Oc1ccccc1C(=O)Nc1ncc([N+](=O)[O-])s1 [NITAZOXANIDE] as well? > 30 µM

Then CCOC(=O)[C@H](CCc1ccccc1)N[C@H]1CS[C@H](c2cccs2)CN(CC(=O)O)C1=O ? > 30 µM

Next up: CCCCOc1ccc(CC(=O)NO)cc1 > 30 µM

Same question for CCCC(=O)O[C@H]1[C@H](C)O[C@@H](O[C@H]2[C@H](N(C)C)[C@@H](O)[C@H](O[C@H]3[C@@H](CC=O)C[C@@H](C)[C@@H](O)/C=C/C=C/C[C@@H](C)OC(=O)C[C@@H](O)[C@@H]3OC)O[C@@H]2C)C[C@@]1(C)OC(=O)CC please. > 30 µM

###

biological target: Alpha-1A adrenergic receptor (Homo sapiens); type: functional, cell-based
VALUE_TYPE: AC50

// worked examples, AC50 included
* CNC(=O)Oc1ccc2c(c1)[C@]1(C)CCN(C)[C@@H]1N2C [PHYSOSTIGMINE] | > 30 µM
* CN1[C@@H]2CC[C@H]1C[C@@H](OC(=O)c1c[nH]c3ccccc13)C2 [TROPISETRON] | > 30 µM
* CC(=O)Oc1ccccc1C(=O)Nc1ncc([N+](=O)[O-])s1 [NITAZOXANIDE] | 8.6 µM
* Cc1ccc(NC(=O)C2(c3ccc4c(c3)OC(F)(F)O4)CC2)nc1-c1cccc(C(=O)O)c1 [LUMACAFTOR] | 25 µM

Report AC50 for CNCC[C@@H](Oc1ccccc1C)c1ccccc1 [ATOMOXETINE] please. > 30 µM

###

target: cGMP-inhibited 3',5'-cyclic phosphodiesterase 3A (Homo sapiens, UniProt Q14432); type: functional; note: assay procedure not described here
Sequence (Q14432 whole entry): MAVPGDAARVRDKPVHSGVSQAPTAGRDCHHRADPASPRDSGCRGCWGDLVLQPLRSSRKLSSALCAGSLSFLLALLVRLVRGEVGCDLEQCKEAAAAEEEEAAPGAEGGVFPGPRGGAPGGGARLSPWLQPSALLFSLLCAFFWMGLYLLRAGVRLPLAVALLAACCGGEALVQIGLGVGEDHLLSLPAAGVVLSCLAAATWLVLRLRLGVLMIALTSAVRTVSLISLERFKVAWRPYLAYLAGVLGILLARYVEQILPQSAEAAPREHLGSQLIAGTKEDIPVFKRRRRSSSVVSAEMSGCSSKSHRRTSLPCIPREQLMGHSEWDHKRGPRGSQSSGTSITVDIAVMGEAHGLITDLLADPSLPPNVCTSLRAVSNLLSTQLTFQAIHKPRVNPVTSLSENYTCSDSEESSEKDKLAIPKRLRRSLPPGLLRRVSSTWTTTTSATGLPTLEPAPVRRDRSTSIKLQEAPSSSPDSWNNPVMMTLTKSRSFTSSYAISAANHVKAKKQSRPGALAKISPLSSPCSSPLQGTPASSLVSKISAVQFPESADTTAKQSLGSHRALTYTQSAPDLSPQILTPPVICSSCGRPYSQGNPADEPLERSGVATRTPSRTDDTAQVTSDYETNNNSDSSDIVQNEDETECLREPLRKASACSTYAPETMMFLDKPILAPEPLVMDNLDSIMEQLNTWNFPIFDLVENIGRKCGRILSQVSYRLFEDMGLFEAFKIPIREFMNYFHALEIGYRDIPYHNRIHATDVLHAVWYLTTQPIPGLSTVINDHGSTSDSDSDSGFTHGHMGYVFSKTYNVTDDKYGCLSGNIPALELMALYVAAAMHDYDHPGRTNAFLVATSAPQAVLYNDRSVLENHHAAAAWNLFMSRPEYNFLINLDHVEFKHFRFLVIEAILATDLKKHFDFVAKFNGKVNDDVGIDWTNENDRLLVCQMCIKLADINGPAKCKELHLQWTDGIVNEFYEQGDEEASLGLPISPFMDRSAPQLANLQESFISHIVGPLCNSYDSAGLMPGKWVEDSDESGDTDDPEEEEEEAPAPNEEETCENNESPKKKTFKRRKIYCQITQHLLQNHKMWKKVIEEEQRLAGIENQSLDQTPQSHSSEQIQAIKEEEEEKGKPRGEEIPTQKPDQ
VALUE_TYPE: AC50

# annotated cases, reported AC50 shown
• COC(=O)[C@H](c1ccccc1Cl)N1CCc2sccc2C1 [CLOPIDOGREL] = > 30 µM
• CN1C[C@H](C(=O)N[C@]2(C)O[C@@]3(O)[C@@H]4CCCN4C(=O)[C@H](Cc4ccccc4)N3C2=O)C[C@@H]2c3cccc4[nH]cc(c34)C[C@H]21 [DIHYDROERGOTAMINE] = > 30 µM
• CC(=O)c1ccc2c(c1)N(CCCN1CCC(CCO)CC1)c1ccccc1S2 [PIPERACETAZINE] = > 10 µM

What is its AC50 for cGMP-inhibited 3',5'-cyclic phosphodiesterase 3A (Homo sapiens, UniProt Q14432)? Entry: NS(=O)(=O)c1cc(C2(O)NC(=O)c3ccccc32)ccc1Cl (centres undefined) [CHLORTHALIDONE] > 30 µM

###

Form field: AC50 (one value per entry).
biological target: UniProtKB P06401; assay type: functional
Sequence (P06401 whole entry): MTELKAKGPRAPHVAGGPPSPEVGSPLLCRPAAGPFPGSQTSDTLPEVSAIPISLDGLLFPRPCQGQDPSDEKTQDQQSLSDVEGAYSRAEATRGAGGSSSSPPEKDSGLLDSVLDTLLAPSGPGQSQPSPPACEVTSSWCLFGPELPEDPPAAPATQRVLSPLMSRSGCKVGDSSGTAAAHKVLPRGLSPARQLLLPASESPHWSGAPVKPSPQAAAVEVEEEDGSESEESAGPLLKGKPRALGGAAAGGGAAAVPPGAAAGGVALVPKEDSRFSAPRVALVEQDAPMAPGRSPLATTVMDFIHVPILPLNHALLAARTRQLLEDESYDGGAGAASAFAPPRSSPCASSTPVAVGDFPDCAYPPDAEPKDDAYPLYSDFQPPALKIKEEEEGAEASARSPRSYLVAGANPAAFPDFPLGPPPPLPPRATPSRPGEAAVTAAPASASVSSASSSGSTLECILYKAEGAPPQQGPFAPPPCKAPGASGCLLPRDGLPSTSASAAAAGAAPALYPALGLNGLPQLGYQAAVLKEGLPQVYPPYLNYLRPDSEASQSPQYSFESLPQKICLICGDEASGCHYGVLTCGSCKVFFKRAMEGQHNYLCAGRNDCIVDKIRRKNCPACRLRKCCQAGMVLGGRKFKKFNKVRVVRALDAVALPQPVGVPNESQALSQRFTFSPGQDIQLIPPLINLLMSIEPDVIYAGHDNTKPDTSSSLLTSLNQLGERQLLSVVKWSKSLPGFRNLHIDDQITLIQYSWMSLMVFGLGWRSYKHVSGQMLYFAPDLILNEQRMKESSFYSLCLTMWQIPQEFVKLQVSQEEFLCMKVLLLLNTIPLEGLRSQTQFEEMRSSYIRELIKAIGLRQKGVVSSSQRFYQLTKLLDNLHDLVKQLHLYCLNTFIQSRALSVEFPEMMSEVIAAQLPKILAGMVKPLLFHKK

• CCCCCCNC(=O)n1cc(F)c(=O)[nH]c1=O = > 30 µM

Given the molecule Cc1cccc(N(C)C(=S)Oc2ccc3ccccc3c2)c1 [TOLNAFTATE] , what is its reported AC50? > 30 µM

Moving on to the next molecule: CN(C)c1cc(CNCC(C)(C)C)c(O)c2c1C[C@H]1C[C@H]3[C@H](N(C)C)C(O)=C(C(N)=O)C(=O)[C@@]3(O)C(O)=C1C2=O > 30 µM

Field entry: O=c1oc2ccccc2c(O)c1Cc1c(O)c2ccccc2oc1=O > 10 µM

And for COCCOC(=O)C1=C(C)NC(C)=C(C(=O)OC/C=C/c2ccccc2)C1c1cccc([N+](=O)[O-])c1 (stereo unspecified) ? > 30 µM

One more molecule: CC(C)c1cc2c(cc1S(=O)(=O)O)[C@@]1(C)CCC[C@@](C)(C(=O)O)[C@@H]1CC2 > 30 µM
